- Experimental target: 5-hydroxytryptamine receptor 2B (Homo sapiens, UniProt P41595)
- Sequence (P41595 whole entry): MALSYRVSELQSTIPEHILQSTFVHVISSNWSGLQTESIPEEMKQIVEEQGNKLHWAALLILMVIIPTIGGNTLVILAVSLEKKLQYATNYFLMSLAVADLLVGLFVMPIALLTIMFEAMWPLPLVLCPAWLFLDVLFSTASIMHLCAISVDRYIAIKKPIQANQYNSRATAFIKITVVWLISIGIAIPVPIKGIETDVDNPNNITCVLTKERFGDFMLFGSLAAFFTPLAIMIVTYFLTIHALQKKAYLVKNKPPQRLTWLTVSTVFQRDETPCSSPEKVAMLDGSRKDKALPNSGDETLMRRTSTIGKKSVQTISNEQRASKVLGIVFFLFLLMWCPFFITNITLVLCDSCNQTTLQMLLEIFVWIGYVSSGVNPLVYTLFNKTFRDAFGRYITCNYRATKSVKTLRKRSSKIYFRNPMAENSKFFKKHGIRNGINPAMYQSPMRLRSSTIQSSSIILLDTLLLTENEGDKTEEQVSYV
pKi: −log10 of the molar value.
Quantity measured: pKi

* CCOc1cc(CN2CCC(Nc3nc4ccccc4o3)CC2)ccc1Cl | 7.13
* CCOc1cc(CN2CCC(Nc3nc4ccccc4o3)CC2)cc(OC2CCOCC2)c1 | 7.03

* * *

Item-by-item account of half-life
- Assay info: Terminal half-life in Wistar rat administered as single dose
- Assay type: ADME, organism-based
- Condition: in vivo, read-out: beta t1/2 (converted)
Quantity measured: half-life

* CCOc1cc(CN2CCC(Nc3nc4ccc(C(=O)O)cc4o3)CC2)ccc1Cl | 3.1 h
* CCOc1cc(CN2CCC(Nc3nc4ccc(Cl)cc4o3)CC2)ccc1Cl | 2.6 h
* CCOc1cc(CN2CCC(Nc3nc4cc(C(N)=O)ccc4o3)CC2)cc(OCC)c1F | 2.5 h
* CCOc1cc(CN2CCC(Nc3nc4ccccc4o3)CC2)ccc1OC | 0.7 h
* CCOc1cc(CN2CCC(Nc3nc4cc(C(=O)O)ccc4o3)CC2)cc(OCC)c1Cl | 4.9 h
* CCOc1cc(CN2CCC(Nc3nc4cc(NS(=O)(=O)c5cn(C)cn5)ccc4o3)CC2)ccc1OC | 1.5 h
* CCOc1cc(CN2CCC(Nc3nc4cc(S(=O)(=O)CC)ccc4o3)CC2)ccc1OC | 0.4 h
* CCOc1cc(CN2CCC(Nc3nc4cc(S(N)(=O)=O)ccc4o3)CC2)ccc1OC | 1.7 h
* CCOc1cc(CN2CCC(Nc3nc4ccc(C(=O)O)cc4o3)CC2)cc(OCC)c1F | 2.4 h

* * *

- Assay info: Octanol-TAPSO partition coefficient, log D at pH 7.4 by spectrophotometry
- Assay type: physicochemical
- Condition: octanol/TAPSO buffer
Quantity measured: logD

- CCOc1cc(CN2CCC(Nc3nc4cc(S(N)(=O)=O)ccc4o3)CC2)ccc1OC: 1.51
- CCOc1cc(CN2CCC(Nc3nc4cc(S(N)(=O)=O)ccc4o3)CC2)cc(OCC)c1N: 1.62
- CCOc1cc(CN2CCC(Nc3nc4ccccc4o3)CC2)ccc1F: 3.63
- CCOc1cc(CN2CCC(Nc3nc4cc(Cl)c(S(N)(=O)=O)cc4o3)CC2)cc(OCC)c1F: 2.78
- CCOc1cc(CN2CCC(Nc3nc4cc(S(=O)(=O)CC)ccc4o3)CC2)ccc1OC: 2.13
- CCOc1cc(CN2CCC(Nc3nc4cc(NS(=O)(=O)c5ccccc5)ccc4o3)CC2)ccc1OC: 1.93
- CCOc1cc(CN2CCC(Nc3nc4cc(C(N)=O)ccc4o3)CC2)cc(OCC)c1F: 2.96
- CCOc1cc(CN2CCC(Nc3nc4ccccc4o3)CC2)ccc1Cl: 3.44
- CCOc1cc(CN2CCC(Nc3nc4cc(S(=O)(=O)CC)ccc4o3)CC2)cc(OC2CCOCC2)c1: 3.13
- CCOc1cc(CN2CCC(Nc3nc4cc(NC(=O)C5CCC5)ccc4o3)CC2)ccc1OC: 2.64

* * *

- Experimental target: Somatostatin receptor type 1 (Homo sapiens)
- Sequence (P30872 whole entry): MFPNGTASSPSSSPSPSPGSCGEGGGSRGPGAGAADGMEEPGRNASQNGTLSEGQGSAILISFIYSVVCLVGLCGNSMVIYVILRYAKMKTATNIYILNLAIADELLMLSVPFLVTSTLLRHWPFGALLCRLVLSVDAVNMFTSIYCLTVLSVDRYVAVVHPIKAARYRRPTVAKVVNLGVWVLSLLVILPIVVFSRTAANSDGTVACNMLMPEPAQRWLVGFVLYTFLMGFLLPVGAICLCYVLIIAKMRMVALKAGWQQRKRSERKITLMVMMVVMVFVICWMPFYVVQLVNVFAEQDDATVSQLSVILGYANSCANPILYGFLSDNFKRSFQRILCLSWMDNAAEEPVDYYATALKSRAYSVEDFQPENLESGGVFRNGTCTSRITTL
- Assay info: Displacement of SST14 from human recombinant SST1 receptor
pKi: −log10 of the molar value.
Quantity measured: pKi

- CCOc1cc(CN2CCC(Nc3nc4cc(C(=O)O)ccc4o3)CC2)cc(OCC)c1Cl: 5.35
- CCOc1cc(CN2CCC(Nc3nc4cc(NC(=O)C5CCC5)ccc4o3)CC2)ccc1OC: 5.31
- CCOc1cc(CN2CCC(Nc3nc4cc(S(N)(=O)=O)ccc4o3)CC2)cc(OCC)c1N: 5.76
